Can you tell me IC50 for the items I'm about to list?
Test system: phosphorylation of AKT (Ser473) in MDA-MB-468 tumor cells
Assay: Inhibition of phosphorylation of AKT in PTEN deficient tumor cell line MDA-MB-468 (MSD Ser473-AKT)
Type: cell-based
Conditions: Homo sapiens, 0.5 h; MDA-MB-468 breast cancer cells, 30 minutes compound treatment, Ser473-pAKT normalized to total AKT
Numbers only, in nM.

{"compound": "Cc1nc2c(C(=O)O)cc(N3CCOCC3)nc2n1Cc1cccc(Cl)c1Cl [Example 4]", "tested_on": "phosphorylation of AKT (Ser473) in MDA-MB-468 tumor cells", "measurement_unit": "nM", "IC50": 41.4}
{"compound": "Cc1nc2ccc(N3CCOCC3)nc2n1Cc1cccc(Cl)c1Cl [Example 8]", "tested_on": "phosphorylation of AKT (Ser473) in MDA-MB-468 tumor cells", "measurement_unit": "nM", "IC50": 406}

Please find the next compound below.
Consider the compound shown here: Cc1c(Cn2c(C)nc3c(C(=O)O)cc(N4CCOCC4)nc32)cccc1C(F)(F)F [Example 3] What is its recorded IC50? 436
